Test name: folding stability dG unfold from chymotrypsin proteolysis; higher = more stable
Kind request: treat 2 kcal/mol as inclusive, so folding stability dG unfold at 2 kcal/mol or higher is Fulfilled, anything lower is Not fulfilled.

Request: Is folding stability dG unfold at least 2 kcal/mol? Consider SAGMTIEIEIPASTSAEEAVERVEAIVEEVRKAGKKFELTIKTSDPALAAAVRAALEAAGVPVTVEVDSAGG [r19_268_JUSTAS]
Response: Fulfilled

Request: Given SAGGSAGGSAGSSVKTYTGKGKKITITKLDNGTYIVTTPDKTSTYPPSVSEEEVIKKALESAGGSAGGSAGG [r17_272_JUSTAS] , state whether its folding stability dG unfold is at least 2 kcal/mol.
Response: Not fulfilled

Request: Check this sequence for folding stability dG unfold at or above 2 kcal/mol: SAGGSDYYIRVRIRIYKPTPEDMQEGKPIPEVEIWFPFDSVEEIKEFLENLPPNIKVDVDWFPPEDSAGGSA [r2_25_TrROS]
Response: Fulfilled

Request: Does the sequence SVKIKINWQRDPEDGRLYLMIEYRFEDDPQQAIEEIKDILERFGFKVPEIESITVDPGNGEITIPIRIPWSA [r9_876_TrROS] have recorded folding stability dG unfold that is 2 kcal/mol or more?
Response: Fulfilled

Request: Assess whether reported folding stability dG unfold for SAGGMELEKAIEFAKETGKEVEIEIEVEDENGKPFVIRVRVKVKPDPEDPNKYKIEVEVEVFPKEELSAGGS [r16_323_TrMRF] sits at 2 kcal/mol or higher.
Response: Fulfilled

Request: Check if folding stability dG unfold >= 2 kcal/mol (inclusive). Item: SAGGSAGGMTLTVDLPLPDGGTVRLEVEPLPDGTVRVRLTYPDGRKAEFETSAPVEVLLERAAGSAGGSAGG [r6_808_TrMRF]
Response: Fulfilled

Request: Hi team, for SAGGSAGGSMVIRVTVKLPNGEEKVFEIEVSEEELKNMSIEELKKLAEELGLPEDVKIELVPPSAGGSAGGS [r12_742_TrROS_Hall] , is the recorded folding stability dG unfold at or above 2 kcal/mol?
Response: Fulfilled

Request: Exam item: decide whether the reported folding stability dG unfold for SAGGKPRILLRRETAPDGRPYYVLQVLRRDPSDDGWTPVLEHRFETPEEAERYARELAEKTGYELVGSAGGS [r16_512_TrMRF] is at least 2 kcal/mol.
Response: Fulfilled

Request: Entry SAGGNAKEIASYLADWFQERFPPNMKVKVSVTVTPDGIVVRIRMPGGWQFEITIKDGKLQEIEWTPYSAGGS [r8_287_TrROS] : is its folding stability dG unfold no less than 2 kcal/mol?
Response: Fulfilled

Request: Kindly determine if folding stability dG unfold recorded for SAGGSAGGGFVTIEVEITEVVGKTKDEEGKPHPGDPNDPSGYVKLPPFPVKVPSSPEEYAALLSSAGGSAGG [r6_219_JUSTAS] is above or exactly 2 kcal/mol.
Response: Not fulfilled

Request: Please indicate if the recorded folding stability dG unfold for SAGGSAGGSAGGAIVTTTTTKAPVFAPDGTVVAEITTTTVTVILPETPPSLLPEVLERLASAGGSAGGSAGG [r7_450_JUSTAS] meets or exceeds 2 kcal/mol.
Response: Not fulfilled

Request: hey, is folding stability dG unfold for this one >= 2 kcal/mol? SMIVTEEVSYDPSTNTRTITKTVYEKDENGNLVPVETEVVVEPVEEPPPYVPVIKVPPSNKTPEDRVKVLSA [r9_888_JUSTAS]
Response: Not fulfilled

Request: Threshold query (folding stability dG unfold >= 2 kcal/mol) on SAGGSAGGSAGGNVRLTVTLDENGRLRVTAEVEVTNENGEKKTYRLTLTLKLKPGQTLTSAGGSAGGSAGGS [r10_763_TrROS_Hall]
Response: Fulfilled

Request: Would you say SAGGSAGGSWGTISIRIEFNFMAFDPGLGQFSMFPMEVYISIPIEIPPPPPPPKPKYDNGKPKSAGGSAGGS [r12_140_TrROS] shows folding stability dG unfold at minimum 2 kcal/mol?
Response: Fulfilled

Request: Would you say SAGGFKIKNIDVERNPDNGWRTITVEFPGNGWKFQIQVPPDGGVKYEWYNNGEPQTYTIPADDLKDLSAGGS [r8_238_TrROS] shows folding stability dG unfold at minimum 2 kcal/mol?
Response: Not fulfilled

Request: // inclusive: folding stability dG unfold at least 2 kcal/mol? input: SAGGSEFIPVVAEFPEDVTPEDVARAVRELERAGFVVERVEVERFPDPDGRERYRVRVVLRRPEELSAGGSA [r2_442_TrMRF]
Response: Fulfilled

Request: Item SAGGSAGGAANIPADQTLEFPTPDGYRRRLTYYPDEGLLVAEYVNPADGTPTFYTFDIPPDSTLSAGGSAGG [r6_406_TrMRF] with folding stability dG unfold of 2 kcal/mol or above?
Response: Not fulfilled

Request: Say whether SAGGSAGGSAGGVYKVEIEIGDAPRTLVVENAAPEEIRAFLEHPEVRRARVEPLSPEELGSAGGSAGGSAGG [r7_502_TrMRF] shows folding stability dG unfold of 2 kcal/mol or more.
Response: Not fulfilled

Request: Identify whether the reported folding stability dG unfold of the following sequence is 2 kcal/mol or greater: SAGGSAGGSAGGMIVETLGDSPETVTLVKLPNKPIIRTYDPVTGTWTIYDPDTNKIYEISAGGSAGGSAGGS [r10_434_JUSTAS]
Response: Not fulfilled

Request: # bool: folding stability dG unfold of SAGGSAGGSAGRTIMIPPNQTAEEAVNHLKEELPPGNKNVTINYWDGDGEWEKFEIEVKKSAGGSAGGSAGG [r17_215_TrROS] >= 2 kcal/mol
Response: Not fulfilled

Request: Please check the record SVEKARERLEKLGFKLVSVDPLEDGSVVLTFEFPDNKVVVLVDEDGNARIVAYNPSDGKFSEATFNLDDLSA [r9_2_TrMRF] and state if its folding stability dG unfold is at or above 2 kcal/mol.
Response: Fulfilled

Request: Hi, just wondering whether SMDVVTEVTVKLPYRDASHHHHLNIKVTRTISSKDPSLSPEALPPEVLAEEAKKEAIEELKKKGIPEEFLSA [r9_516_JUSTAS] shows folding stability dG unfold of 2 kcal/mol or higher.
Response: Not fulfilled

Request: Item SANMDMPPGFKPIARDDDITIWQNPNPVYIMIRGPDGKHKMLPFNPGDPEKIKDLIREFADDGITDIMISAG [r14_12_TrROS] with folding stability dG unfold of 2 kcal/mol or above?
Response: Not fulfilled

Request: Confirm if folding stability dG unfold reported for the sequence SAGGSPWIFVIKIEWEPRDPDGKKKKYEYSIVITATPNQLDELLEQIKKAPPGYKIKEVKIEVFPFSAGGSA [r2_75_TrROS] is 2 kcal/mol or above.
Response: Fulfilled

Request: Tell me whether folding stability dG unfold is at least 2 kcal/mol here: SAGGSAGGSGGMMVTITLPPGVPPSVVRAALEPLGVRVEVRPVPPVVPFRYPEPGELVFSPLGSAGGSAGGS [r12_80_JUSTAS]
Response: Not fulfilled

Request: Check this sequence for folding stability dG unfold at or above 2 kcal/mol: SAGGSAPGEPIFIRWKIEHPNGNPWTIPFPIKTEEQALEQAIRFAESIAKKLGNPNVKIKIDEIIPSAGGSA [r15_698_TrROS]
Response: Not fulfilled
